molecular target: T1, human PD-L1 recombinant protein, PD-L1-his (human, UniProt Q9NZQ7 19-238); experiment: Gator BLI; antibody on HFC sensor, PD-L1-his in solution; 1:1 fit
T1 construct: also called PD-L1 with a his-tag; not shown: his-tag
T1 sequence (Q9NZQ7 19-238 limits assumed): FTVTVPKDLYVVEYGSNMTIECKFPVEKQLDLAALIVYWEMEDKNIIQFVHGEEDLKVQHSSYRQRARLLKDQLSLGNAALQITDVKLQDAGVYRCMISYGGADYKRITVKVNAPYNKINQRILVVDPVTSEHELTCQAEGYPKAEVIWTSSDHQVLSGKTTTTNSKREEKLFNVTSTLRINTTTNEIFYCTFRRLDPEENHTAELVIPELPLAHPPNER
Catalogue of binders with associated pKd
Friendly reminder that pKd comes from taking -log10 of the concentration in mol/L.

binder	pKd
Clone B (antibody, V domains shown, Mouse hybridoma clone) VH: QGQMQQSGAELVKPGASVKLSCKTSGFTFSSSYISWLKQKPGQSLEWIAWIYAGTGGTSYNQKFTGKAQLTVDTPSSTAYMQFSSLTTEDSAIYYCARHEGKYWYFDVWGAGTTVTVSS VL: QILLTQSPAIMSASPGEKVTMTCSASSSVSYVHWYQQKPGSSPKPWIYDTSNLASGFPARFSGSGSGTSYSLIISSMEAEDAATYYCHQRSSYPWTFGGGTKLEIK	8.23
Clone N (antibody, V domains shown, Mouse hybridoma clone) VH: EVQLQQSGPELVKPGASMKISCKASGYSFTGYTMNWVKQSHGKNLEWIGLIIPHNGGTSYNQKFKDKATLTVDKSSRTAYMELLSLTSEDSAVYYCASLMTTAPRDSMDYWGQGTSVTVSS VL: DIQMTQTTSSLSASLGDRVTISCRASQDISNYLNWYQQKPDGTVKLLIYYTSRLHSGVPSRFSGSGSGTDYSLTISNLDQEDIATYFCQQGATLPWTFGGGTKLEIK	8.45
Clone C (antibody, V domains shown, Mouse hybridoma clone) VH: EVQLQQSGADLVKPGASVKLSCTASGFNIKDTYMHWVKQRPEQGLEWIGRIDPANGNTKYDPKFQGKATITTDTSSNTAYLQLSSLTSEDTAVYYCARGLGRWFAYWGQGTLVTVSA VL: DIVMTQSHKFMSTSVGDRVSITCKASQDVSNAVAWYQQKPGQSPELLIYSASNRYTGVPDRFTGSGSGTDFTFTISSVQAEDLAVYYCQQHDSTPLTFGAGTKLELK	8.36

Alright, here's another binder for you.
// query I am curious: what pKd value has been reported for Clone D (antibody, V domains shown, Mouse hybridoma clone) VH: EVQLQQSGPELVKPGASMKISCKASGYSFTGYTMNWVKQSHGKNLEWIGLIIPYNGGISYNQKFKDKATLTVDKSSSTAYMELLSLTSEDSAVYYCASLITTAPRDSMDYWGQGTSVTVSS VL: DIQMTQTTSSLSASLGDRVTISCRASQDISNYLNWYQQKPDGSVKLLIYYTSKLHSGVPSRFSGSGSGTDYSLTISNLEQEDIATYFCQQGDALPWTFGGGTKLEIK ?
// result 8.43
